Data credit: paper PMC9050674

TARGET_OR_SYSTEM: Pgp3 H216A (Campylobacter jejuni, UniProt Q0P921, H216A)
ASSAY_EXPLANATION: ITC with Pgp3 H216A variant
MEASUREMENT_LABEL: Kd (µM)
Write it as a number; the unit µM goes unstated.

Just so you know, measured Kd for CC(=O)N[C@@H](CCC[C@@H](NC(C)=O)C(=O)O)C(=O)N[C@H](C)C(=O)NO came out at 10.4

* * *

Please consider the recorded pIC50 for Pgp3 (Campylobacter jejuni, UniProt Q0P921) in what follows.
# pIC50 = -log10(concentration in molar units)

[[record]]
molecule = "NS(=O)(=O)c1ccc(-c2ccc(CC(=O)NO)cc2)cc1 [BMK-S303]"
target_or_system = "Pgp3 (Campylobacter jejuni, UniProt Q0P921)"
measurement_label = "pIC50"
endpoint_result = 4.65

[[record]]
molecule = "CC(=O)N[C@@H](Cc1ccc(S(N)(=O)=O)cc1)C(=O)N[C@H](C)C(=O)NO [BMK-S301]"
target_or_system = "Pgp3 (Campylobacter jejuni, UniProt Q0P921)"
measurement_label = "pIC50"
endpoint_result = 4.66


Kindly review the next molecule as well.
Just so you know, measured pIC50 for NS(=O)(=O)c1ccc(CC(=O)NCC(=O)NO)cc1 [BMK-S302] came out at 3.61

* * *

TARGET_OR_SYSTEM: UniProt Q0P921
Mark each entry 1.0 if its Kd sits below 4 µM, and 0.0 for all others.

[[record]]
smiles_string = "CC(=O)N[C@@H](CCC[C@@H](NC(C)=O)C(=O)O)C(=O)N[C@H](C)C(=O)NO"
target_or_system = "UniProt Q0P921"
class_label = 1.0


Query: I'd appreciate it if you could check whether NS(=O)(=O)c1ccc(-c2ccc(CC(=O)NO)cc2)cc1 has Kd smaller than 4 µM.
Result: 1.0

Query: I'd appreciate it if you could check whether CC(=O)N[C@@H](Cc1ccc(S(N)(=O)=O)cc1)C(=O)N[C@H](C)C(=O)NO has Kd smaller than 4 µM.
Result: 1.0

Query: I'd appreciate it if you could check whether CC(=O)N[C@@H](CCNCC(=O)O)C(=O)N[C@H](C)C(=O)NO has Kd smaller than 4 µM.
Result: 0.0

Query: I'd appreciate it if you could check whether NS(=O)(=O)c1ccc(CC(=O)NCC(=O)NO)cc1 has Kd smaller than 4 µM.
Result: 0.0

Query: I'd appreciate it if you could check whether CC(=O)N[C@@H](CCN(CC(=O)O)CC1CCCC1)C(=O)N[C@H](C)C(=O)NO has Kd smaller than 4 µM.
Result: 1.0

Query: I'd appreciate it if you could check whether CC(=O)N[C@@H](CCN(CC(=O)O)Cc1ccccc1)C(=O)N[C@H](C)C(=O)NO has Kd smaller than 4 µM.
Result: 1.0
